Source listed as patent US20200071424A1.

# Assay target: T1, cynomolgus monkey EL (cynomolgus monkey)
# T1 construct: Heparin extract; also called cynomolgus EL; Cynomolgus EL
# Assay comment: Biacore; EL captured by anti-C2-tag Ab; bivalent fit
kon reference
# value in M⁻¹ s⁻¹; strip the unit string

Study these solved cases before continuing.
{"Binder": "7D4 (antibody, mouse IgG1, V domains shown, mouse IgG1 from hybridoma) VH: QIQLVQSGPELKKPGETVKISCKASGYTFTNYGMNWVKQAPGKDLKWMGWINTYSGVPTYADDFKGRFAFSLETSASTAYLQINNLKNEDTATYFCARFSYYGRHYFDYWGQGTTLTVSS VL: DIVLTQSPASLAVSLGQRATISCKASQSVDYDGDSYMNWYQQKPGQPPQLLIYAASNLGSGIPARFSGSGSGTDFTLNIHPVEEEDAATYYCHQSTDDPPWTFGGGTKLEIK", "Quantity unit": "M⁻¹ s⁻¹", "kon": 120000}
{"Binder": "23H8 (antibody, mouse IgG2a, V domains shown, mouse IgG2a from hybridoma; also called 23H8 (mouse mAb)) VH: EVQLQQSGPELLKPGASVKISCKASGYTFTDNTIHWVKQSHGKSLEWIGHINPYYGGTNNNEKFKDKATLTVDKSSSTAYMELRSLTSEDSAIYYCARKGIYYSSPFDYWGQGTTLTVSS VL: DIQMTQTTSSLSASLGDRVTISCRASQDINNYLNWYQQKPDGTVKLLISYTSKLHSGVPSRFSGSGSGTDYSLTISNLEREDFATYFCQQGNTLPFTFGSGTNLEIK", "Quantity unit": "M⁻¹ s⁻¹", "kon": 120000}

Entry 14E1 (antibody, mouse IgG1, V domains shown, mouse IgG1 from hybridoma) VH: QVQLQQSGAELVKPGASVRLSCKASGYTFTKYTIHWVKQRSGQGLEWIGWFYPGSDSIKYNEKFKDKATLTADKSSRTVYMELSRLTSEDSAVYFCARHEEYTNSLAYWGQGTLVTVSA VL: DIQMTQTTSSLSASLGDRVTISCRASQDISNYLNWYQQQPDGTVKLLIYYTSRLHSGVPSRFSGSGSGTDYSLTISNLEQEDIATYFCQQGYTLPWTFGGGTNLEIK : reported kon = ?
120000
